target: UniProt:Q9Y4E8; assay: linear diubiquitin gel shift cleavage assay (SDS-PAGE, ImageJ); type: biochemical
Sequence (Q9Y4E8 2-952 isoform Q9Y4E8-2): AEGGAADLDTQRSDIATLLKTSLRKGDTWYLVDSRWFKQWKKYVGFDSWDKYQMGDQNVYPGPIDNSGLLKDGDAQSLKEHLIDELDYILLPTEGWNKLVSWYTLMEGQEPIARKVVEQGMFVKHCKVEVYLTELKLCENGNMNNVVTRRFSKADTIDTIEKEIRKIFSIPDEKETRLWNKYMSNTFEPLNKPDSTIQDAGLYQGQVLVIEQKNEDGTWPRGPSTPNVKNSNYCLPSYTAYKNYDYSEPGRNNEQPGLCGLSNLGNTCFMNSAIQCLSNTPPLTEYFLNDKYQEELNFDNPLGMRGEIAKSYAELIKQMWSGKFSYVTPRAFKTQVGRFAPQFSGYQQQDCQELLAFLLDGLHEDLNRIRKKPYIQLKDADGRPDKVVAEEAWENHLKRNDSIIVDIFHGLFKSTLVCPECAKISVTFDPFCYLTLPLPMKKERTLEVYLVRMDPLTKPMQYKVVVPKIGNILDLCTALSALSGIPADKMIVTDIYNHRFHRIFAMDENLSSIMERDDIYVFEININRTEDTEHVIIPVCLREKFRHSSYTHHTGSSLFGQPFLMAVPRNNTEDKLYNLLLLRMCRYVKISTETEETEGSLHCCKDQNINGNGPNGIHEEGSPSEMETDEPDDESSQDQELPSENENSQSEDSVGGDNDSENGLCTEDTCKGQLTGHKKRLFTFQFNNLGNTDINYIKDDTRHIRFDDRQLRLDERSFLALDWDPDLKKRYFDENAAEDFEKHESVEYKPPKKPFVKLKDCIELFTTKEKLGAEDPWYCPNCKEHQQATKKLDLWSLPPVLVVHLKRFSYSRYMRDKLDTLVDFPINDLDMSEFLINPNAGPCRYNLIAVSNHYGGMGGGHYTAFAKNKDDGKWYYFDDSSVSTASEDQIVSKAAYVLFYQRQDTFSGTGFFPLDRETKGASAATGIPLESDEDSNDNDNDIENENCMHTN
quantityMeasured: pIC50
Please treat pIC50 as minus the base-10 logarithm of the molar concentration.

Short answer for O=C1c2c(O)ccc(O)c2C(=O)c2c(NCCNCCO)ccc(NCCNCCO)c21 [mitoxantrone] : pIC50 was 4.48
